Would you kindly list Hemolysis at 100 μM for each of these compounds?
System: human red blood cells (hRBC)
Assay: Hemolysis
Assay type: cell-based
Bridge positions count the residues as written; N and C are the ends. Square brackets hold non-standard residues; d marks the D form. Peptide text beside a SMILES is read from it. 2Nal = N[C@@H](Cc1ccc2ccccc2c1)C(=O)O; Cit = NC(=O)NCCC[C@H](N)C(=O)O
Give just the numeric value; % need not be written.

# assay system human red blood cells (hRBC): give Hemolysis at 100 μM of CC[C@H](C)[C@@H]1NC(=O)[C@@H]2CCCN2C(=O)[C@H]2CCCN2C(=O)[C@H](CCCCN)NC(=O)[C@H](CCC(N)=O)NC(=O)[C@H](Cc2ccc(O)cc2)NC(=O)[C@@H]2CSSC[C@H](NC(=O)[C@H](CCCNC(N)=O)NC(=O)[C@H](CCCNC(=N)N)NC1=O)C(=O)N[C@@H](CCCNC(=N)N)C(=O)NCC(=O)N1CCC[C@@H]1C(=O)N[C@@H](CCCNC(=N)N)C(=O)N[C@@H](CCCNC(=N)N)C(=O)N[C@@H](Cc1ccc3ccccc3c1)C(=O)N2 [Ex. 65] (cyclo(IR[Cit]CRG[dP]RR[2Nal]CYQK[dP]P); disulfide 4-11) 0.2

# assay system human red blood cells (hRBC): give Hemolysis at 100 μM of N=C(N)NCCC[C@@H]1NC(=O)[C@@H]2CSSC[C@H](NC(=O)[C@H](Cc3ccc4ccccc4c3)NC(=O)[C@H](CCCNC(=N)N)NC(=O)[C@H](Cc3ccc(O)cc3)NC(=O)[C@H]3CCCN3C(=O)CNC1=O)C(=O)N[C@@H](Cc1ccc(O)cc1)C(=O)N[C@@H](CCC(N)=O)C(=O)N[C@@H](CCCCN)C(=O)N1CCC[C@@H]1C(=O)N1CCC[C@H]1C(=O)N[C@@H](Cc1ccc(O)cc1)C(=O)N[C@@H](CCCNC(=N)N)C(=O)N[C@@H](CCCNC(N)=O)C(=O)N2 [Ex. 54] (cyclo(YR[Cit]CRG[dP]YR[2Nal]CYQK[dP]P); disulfide 4-11) 0

# assay system human red blood cells (hRBC): give Hemolysis at 100 μM of N=C(N)NCCC[C@@H]1NC(=O)[C@@H]2CSSC[C@H](NC(=O)[C@H](Cc3ccc4ccccc4c3)NC(=O)[C@H](CCCNC(=N)N)NC(=O)[C@H](CCCNC(=N)N)NC(=O)[C@H]3CCCN3C(=O)CNC1=O)C(=O)N[C@@H](Cc1ccc(O)cc1)C(=O)N[C@@H](CCC(N)=O)C(=O)N[C@@H](CCCCN)C(=O)N1CCC[C@@H]1C(=O)N1CCC[C@H]1C(=O)N[C@@H](Cc1ccc(O)cc1)C(=O)N[C@@H](CCCNC(=N)N)C(=O)N[C@@H](CC(=O)O)C(=O)N2 [Ex. 93] (cyclo(YRDCRG[dP]RR[2Nal]CYQK[dP]P); disulfide 4-11) 0.2

# assay system human red blood cells (hRBC): give Hemolysis at 100 μM of N=C(N)NCCC[C@@H]1NC(=O)[C@@H]2CSSC[C@H](NC(=O)[C@H](Cc3ccc4ccccc4c3)NC(=O)[C@H](CCCNC(=N)N)NC(=O)[C@H](CCCNC(=N)N)NC(=O)[C@H]3CCCN3C(=O)CNC1=O)C(=O)N[C@@H](Cc1ccc(O)cc1)C(=O)N[C@@H](CCC(N)=O)C(=O)N[C@@H](CCCCN)C(=O)N1CCC[C@@H]1C(=O)N1CCC[C@H]1C(=O)N[C@@H](Cc1c[nH]cn1)C(=O)N[C@@H](CCCNC(=N)N)C(=O)N[C@@H](CCCNC(N)=O)C(=O)N2 [Ex. 64] (cyclo(HR[Cit]CRG[dP]RR[2Nal]CYQK[dP]P); disulfide 4-11) 0.3

----------
Would you kindly list Hemolysis at 100 μM for each of these molecules?
Test system: human red blood cells (hRBC)
Experiment: Hemolysis
Type: cell-based
Bridge positions count the residues as written; N and C are the ends. Square brackets hold non-standard residues; d marks the D form. Peptide text beside a SMILES is read from it. 2Nal = N[C@@H](Cc1ccc2ccccc2c1)C(=O)O; Cit = NC(=O)NCCC[C@H](N)C(=O)O
Give just the numeric value; % need not be written.

Identify measured Hemolysis at 100 μM associated with N=C(N)NCCC[C@@H]1NC(=O)[C@@H]2CSSC[C@H](NC(=O)[C@H](Cc3ccc4ccccc4c3)NC(=O)[C@H](CCCNC(=N)N)NC(=O)[C@H](CCCNC(=N)N)NC(=O)[C@H]3CCCN3C(=O)CNC1=O)C(=O)N[C@@H](Cc1ccc(O)cc1)C(=O)N[C@@H](CCC(N)=O)C(=O)N[C@@H](CCCCN)C(=O)N1CCC[C@@H]1C(=O)N1CCC[C@H]1C(=O)N[C@@H](CC(=O)O)C(=O)N[C@@H](CCCNC(=N)N)C(=O)N[C@@H](CCCNC(N)=O)C(=O)N2 [Ex. 88] (cyclo(DR[Cit]CRG[dP]RR[2Nal]CYQK[dP]P); disulfide 4-11) 0

Identify measured Hemolysis at 100 μM associated with CC(C)[C@@H]1NC(=O)[C@@H]2CCCN2C(=O)[C@H]2CCCN2C(=O)[C@H](CCCCN)NC(=O)[C@H](CCC(N)=O)NC(=O)[C@H](Cc2ccc(O)cc2)NC(=O)[C@@H]2CSSC[C@H](NC(=O)[C@H](CCCNC(N)=O)NC(=O)[C@H](CCCNC(=N)N)NC1=O)C(=O)N[C@@H](CCCNC(=N)N)C(=O)NCC(=O)N1CCC[C@@H]1C(=O)N[C@@H](CCCNC(=N)N)C(=O)N[C@@H](CCCNC(=N)N)C(=O)N[C@@H](Cc1ccc3ccccc3c1)C(=O)N2 [Ex. 90] (cyclo(VR[Cit]CRG[dP]RR[2Nal]CYQK[dP]P); disulfide 4-11) 0.1

Identify measured Hemolysis at 100 μM associated with N=C(N)NCCC[C@@H]1NC(=O)[C@@H]2CSSC[C@H](NC(=O)[C@H](Cc3ccc4ccccc4c3)NC(=O)[C@H](CCCNC(=N)N)NC(=O)[C@H](CCCNC(=N)N)NC(=O)[C@H]3CCCN3C(=O)CNC1=O)C(=O)N[C@@H](Cc1ccc(O)cc1)C(=O)N[C@@H](CCC(N)=O)C(=O)N[C@@H](CCCCN)C(=O)N1CCC[C@@H]1C(=O)N1CCC[C@H]1C(=O)N[C@@H](Cc1ccc(O)cc1)C(=O)N[C@@H](CCCNC(=N)N)C(=O)N[C@@H](CCCCN)C(=O)N2 [Ex. 94] (cyclo(YRKCRG[dP]RR[2Nal]CYQK[dP]P); disulfide 4-11) 0.2

Identify measured Hemolysis at 100 μM associated with N=C(N)NCCC[C@@H]1NC(=O)[C@H](CCCNC(=N)N)NC(=O)[C@H]2CCCN2C(=O)CNC(=O)[C@H](CO)NC(=O)[C@@H]2CSSC[C@H](NC(=O)[C@H](Cc3ccc4ccccc4c3)NC1=O)C(=O)N[C@@H](Cc1ccc(O)cc1)C(=O)N[C@@H](CCC(N)=O)C(=O)N[C@@H](CCCCN)C(=O)N1CCC[C@@H]1C(=O)N1CCC[C@H]1C(=O)N[C@@H](Cc1ccc(O)cc1)C(=O)N[C@@H](CCCNC(=N)N)C(=O)N[C@@H](CCCNC(N)=O)C(=O)N2 [Ex. 101] (cyclo(YR[Cit]CSG[dP]RR[2Nal]CYQK[dP]P); disulfide 4-11) 0.6

Identify measured Hemolysis at 100 μM associated with CC(C)C[C@@H]1NC(=O)[C@H](Cc2ccc(O)cc2)NC(=O)[C@@H]2CSSC[C@H](NC(=O)[C@H](CCCNC(N)=O)NC(=O)[C@H](CCCNC(=N)N)NC(=O)[C@H](Cc3ccc(O)cc3)NC(=O)[C@@H]3CCCN3C(=O)[C@H]3CCCN3C(=O)[C@H](CCCCN)NC1=O)C(=O)N[C@@H](CCCNC(=N)N)C(=O)NCC(=O)N1CCC[C@@H]1C(=O)N[C@@H](CCCNC(=N)N)C(=O)N[C@@H](CCCNC(=N)N)C(=O)N[C@@H](Cc1ccc3ccccc3c1)C(=O)N2 [Ex. 82] (cyclo(YR[Cit]CRG[dP]RR[2Nal]CYLK[dP]P); disulfide 4-11) 0

Identify measured Hemolysis at 100 μM associated with N=C(N)NCCC[C@@H]1NC(=O)[C@@H]2CSSC[C@H](NC(=O)[C@H](Cc3ccc4ccccc4c3)NC(=O)[C@H](CCCNC(=N)N)NC(=O)[C@H](CCCNC(=N)N)NC(=O)[C@H]3CCCN3C(=O)CNC1=O)C(=O)N[C@@H](Cc1ccc(O)cc1)C(=O)N[C@@H](CCC(N)=O)C(=O)N[C@@H](CCCCN)C(=O)N1CCC[C@@H]1C(=O)N1CCC[C@H]1C(=O)N[C@@H](Cc1ccc(O)cc1)C(=O)N[C@@H](CCCNC(=N)N)C(=O)N1CCC[C@H]1C(=O)N2 [Ex. 74] (cyclo(YRPCRG[dP]RR[2Nal]CYQK[dP]P); disulfide 4-11) 0.4

Identify measured Hemolysis at 100 μM associated with N=C(N)NCCC[C@@H]1NC(=O)[C@@H]2CSSC[C@H](NC(=O)[C@H](Cc3ccc4ccccc4c3)NC(=O)[C@H](CCCNC(=N)N)NC(=O)[C@H](CCCNC(=N)N)NC(=O)[C@H]3CCCN3C(=O)CNC1=O)C(=O)N[C@@H](Cc1ccc(O)cc1)C(=O)N[C@@H](CCC(N)=O)C(=O)N[C@@H](CCC(=O)O)C(=O)N1CCC[C@@H]1C(=O)N1CCC[C@H]1C(=O)N[C@@H](Cc1ccc(O)cc1)C(=O)N[C@@H](CCCNC(=N)N)C(=O)N[C@@H](CCCNC(N)=O)C(=O)N2 [Ex. 61] (cyclo(YR[Cit]CRG[dP]RR[2Nal]CYQE[dP]P); disulfide 4-11) 0.3

Identify measured Hemolysis at 100 μM associated with N=C(N)NCCC[C@@H]1NC(=O)[C@@H]2CSSC[C@H](NC(=O)[C@H](Cc3ccc4ccccc4c3)NC(=O)[C@H](CCCNC(=N)N)NC(=O)[C@H](CCCNC(=N)N)NC(=O)[C@H]3CCCN3C(=O)CNC1=O)C(=O)N[C@@H](Cc1ccc(O)cc1)C(=O)N[C@@H](CCC(N)=O)C(=O)N[C@@H](CCCCN)C(=O)N1CCC[C@@H]1C(=O)N1CCC[C@H]1C(=O)N[C@@H](Cc1ccc(O)cc1)C(=O)N[C@@H](CCCNC(=N)N)C(=O)N[C@@H](CCCNC(N)=O)C(=O)N2 [Ex. 132] (cyclo(RR[2Nal]CYQK[dP]PYR[Cit]CRG[dP]); disulfide 4-13) 0

Each recorded value in this set is attributed to patent US8895695B2.
